Attribution: ChEMBL document CHEMBL4330108

// reported IC50 per item
target.or.test.system: UniProt P35968
experimental.details: Inhibition of VEGFR2 (unknown origin) using FAM-labelled peptide as substrate measured after 10 mins

| structure | target.or.test.system | IC50 / nM |
| --- | --- | --- |
| O=C(Nc1ccc(Nc2ccc([N+](=O)[O-])c3ncnc(O)c23)cc1)Nc1cccc(C(F)(F)F)c1 | UniProt P35968 | 45 |
| Cc1cccc(NC(=O)Nc2ccc(Nc3ccc([N+](=O)[O-])c4ncnc(O)c34)cc2)c1 | UniProt P35968 | 78 |
| O=C(Nc1ccc(Nc2ccc([N+](=O)[O-])c3ncnc(O)c23)cc1)Nc1cc(Cl)ccc1Cl | UniProt P35968 | 42 |
| O=C(Nc1ccc(Nc2ccc([N+](=O)[O-])c3ncnc(O)c23)cc1)Nc1cc(C(F)(F)F)ccc1Cl | UniProt P35968 | 12 |

###

target.or.test.system: Epidermal growth factor receptor (Homo sapiens, UniProt P00533)
Sequence (P00533 whole entry): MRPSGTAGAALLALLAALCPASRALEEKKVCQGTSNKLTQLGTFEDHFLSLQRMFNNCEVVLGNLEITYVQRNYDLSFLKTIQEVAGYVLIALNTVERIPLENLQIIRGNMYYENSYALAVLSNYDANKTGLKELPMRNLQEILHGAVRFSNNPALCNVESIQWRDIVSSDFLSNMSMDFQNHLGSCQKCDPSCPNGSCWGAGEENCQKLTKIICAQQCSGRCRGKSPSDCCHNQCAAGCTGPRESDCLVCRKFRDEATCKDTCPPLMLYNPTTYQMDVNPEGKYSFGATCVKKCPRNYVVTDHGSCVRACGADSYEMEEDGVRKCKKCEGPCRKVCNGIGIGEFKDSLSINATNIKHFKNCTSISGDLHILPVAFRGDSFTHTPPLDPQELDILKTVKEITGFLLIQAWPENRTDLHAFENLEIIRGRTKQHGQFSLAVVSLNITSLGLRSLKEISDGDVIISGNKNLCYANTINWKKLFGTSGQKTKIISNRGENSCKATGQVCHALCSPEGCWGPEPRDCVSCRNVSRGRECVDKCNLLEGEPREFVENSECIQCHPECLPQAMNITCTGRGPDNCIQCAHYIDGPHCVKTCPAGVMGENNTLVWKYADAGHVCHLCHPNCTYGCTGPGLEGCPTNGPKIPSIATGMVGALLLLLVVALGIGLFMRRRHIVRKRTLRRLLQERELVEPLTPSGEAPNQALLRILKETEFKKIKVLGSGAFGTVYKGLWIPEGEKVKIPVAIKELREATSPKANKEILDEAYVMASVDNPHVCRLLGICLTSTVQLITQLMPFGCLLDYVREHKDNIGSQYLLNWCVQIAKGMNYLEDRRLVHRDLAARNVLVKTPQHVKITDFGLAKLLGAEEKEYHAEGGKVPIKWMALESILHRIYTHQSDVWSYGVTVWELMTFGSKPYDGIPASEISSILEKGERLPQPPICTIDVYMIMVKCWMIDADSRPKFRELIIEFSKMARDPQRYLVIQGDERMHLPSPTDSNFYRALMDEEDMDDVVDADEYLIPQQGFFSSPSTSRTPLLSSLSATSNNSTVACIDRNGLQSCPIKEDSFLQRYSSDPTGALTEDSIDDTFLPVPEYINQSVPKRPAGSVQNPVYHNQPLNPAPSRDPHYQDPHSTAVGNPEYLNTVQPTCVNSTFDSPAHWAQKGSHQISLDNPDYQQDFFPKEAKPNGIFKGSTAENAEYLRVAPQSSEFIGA
pIC50: −log10 of the molar value.

| structure | pIC50 |
| --- | --- |
| CCOc1cc2ncc(C#N)c(Nc3ccc(OCc4ccccn4)c(F)c3)c2cc1NC(=O)/C=C/CN(C)C | 7.04 |

###

target.or.test.system: Vascular endothelial growth factor receptor 3 (Homo sapiens, UniProt P35916)
Sequence (P35916 whole entry): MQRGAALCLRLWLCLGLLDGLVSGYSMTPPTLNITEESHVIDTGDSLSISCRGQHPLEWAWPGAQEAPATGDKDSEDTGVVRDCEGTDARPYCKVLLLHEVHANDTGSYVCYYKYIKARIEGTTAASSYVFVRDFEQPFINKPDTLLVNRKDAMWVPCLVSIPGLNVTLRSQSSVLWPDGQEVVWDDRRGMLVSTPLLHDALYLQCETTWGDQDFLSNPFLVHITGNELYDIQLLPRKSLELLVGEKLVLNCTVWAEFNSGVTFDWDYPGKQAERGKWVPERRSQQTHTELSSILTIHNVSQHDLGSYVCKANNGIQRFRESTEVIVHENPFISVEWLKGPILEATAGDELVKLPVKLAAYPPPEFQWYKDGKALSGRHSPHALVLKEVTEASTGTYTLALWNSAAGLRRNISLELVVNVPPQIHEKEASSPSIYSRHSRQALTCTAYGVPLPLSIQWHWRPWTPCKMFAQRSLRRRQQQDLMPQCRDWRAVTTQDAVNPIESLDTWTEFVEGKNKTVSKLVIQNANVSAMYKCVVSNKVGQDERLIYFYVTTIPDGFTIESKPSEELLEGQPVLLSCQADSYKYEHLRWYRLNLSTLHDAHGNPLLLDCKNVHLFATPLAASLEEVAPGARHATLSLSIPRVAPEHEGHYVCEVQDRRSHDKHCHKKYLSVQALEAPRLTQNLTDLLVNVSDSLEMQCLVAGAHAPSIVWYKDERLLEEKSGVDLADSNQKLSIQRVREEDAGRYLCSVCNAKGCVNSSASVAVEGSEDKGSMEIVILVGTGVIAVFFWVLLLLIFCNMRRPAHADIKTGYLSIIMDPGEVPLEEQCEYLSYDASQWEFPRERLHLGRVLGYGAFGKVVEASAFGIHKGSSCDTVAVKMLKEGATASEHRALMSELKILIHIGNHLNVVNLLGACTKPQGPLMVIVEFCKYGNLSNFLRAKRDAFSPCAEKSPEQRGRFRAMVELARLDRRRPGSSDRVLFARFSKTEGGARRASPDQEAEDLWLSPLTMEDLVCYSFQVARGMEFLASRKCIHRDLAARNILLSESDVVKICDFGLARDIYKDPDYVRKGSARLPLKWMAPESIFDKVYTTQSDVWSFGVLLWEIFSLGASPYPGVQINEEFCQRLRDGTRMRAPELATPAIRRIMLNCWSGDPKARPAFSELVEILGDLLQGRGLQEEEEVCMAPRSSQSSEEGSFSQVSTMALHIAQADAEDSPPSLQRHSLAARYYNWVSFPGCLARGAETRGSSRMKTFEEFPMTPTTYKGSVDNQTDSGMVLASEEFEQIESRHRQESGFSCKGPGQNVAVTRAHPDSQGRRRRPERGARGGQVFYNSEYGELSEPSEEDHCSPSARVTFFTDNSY

| structure | quantity.unit | IC50 |
| --- | --- | --- |
| COc1cccc(NC(=O)N2CCCc3cc(Nc4ncnc5cc(OC)c(OC)cc45)ccc32)c1 | nM | 14.2 |

###

pIC50, Vascular endothelial growth factor receptor 2 (Homo sapiens): measured values
pIC50: −log10 of the molar value.

| structure | pIC50 |
| --- | --- |
| COc1cc2ncnc(Nc3ccc4c(c3)CCCN4C(=O)Nc3ccc(C(C)=O)cc3)c2cc1OC | 7.52 |
| COc1cc2ncnc(Nc3ccc4c(c3)CCCN4C(=O)Nc3cccc(Cl)c3)c2cc1OC | 7.52 |
| COc1cccc(NC(=O)N2CCCc3cc(Nc4ncnc5cc(OC)c(OC)cc45)ccc32)c1 | 7.28 |

###

target.or.test.system: Histone deacetylase 1 (Homo sapiens)
Sequence (Q13547 whole entry): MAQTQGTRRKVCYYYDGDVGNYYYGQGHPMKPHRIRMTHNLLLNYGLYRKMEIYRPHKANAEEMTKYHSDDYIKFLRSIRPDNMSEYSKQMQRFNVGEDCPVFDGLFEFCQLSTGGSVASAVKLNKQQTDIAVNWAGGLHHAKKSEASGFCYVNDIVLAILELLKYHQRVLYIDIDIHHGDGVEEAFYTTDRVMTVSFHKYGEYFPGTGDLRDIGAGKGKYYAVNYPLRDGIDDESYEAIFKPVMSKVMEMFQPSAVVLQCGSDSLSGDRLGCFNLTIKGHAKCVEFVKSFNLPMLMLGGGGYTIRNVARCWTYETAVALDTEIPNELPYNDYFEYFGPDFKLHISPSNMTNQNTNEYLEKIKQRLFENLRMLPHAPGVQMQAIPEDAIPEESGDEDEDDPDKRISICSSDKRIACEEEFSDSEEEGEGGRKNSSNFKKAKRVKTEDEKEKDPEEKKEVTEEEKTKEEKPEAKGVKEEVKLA
reported.metric: IC50

| structure | reported.metric | endpoint.result |
| --- | --- | --- |
| COc1cc2ncnc(Nc3ccc(CC(=O)Nc4cc(-c5cccs5)ccc4N)cc3)c2cc1OC | IC50 | 178 nM |
